Biological target: Ubiquitin carboxyl-terminal hydrolase 1 (Homo sapiens)
Test: Inhibitors of USP1/UAF1: Pilot qHTS (AID 504865); further: nearly all actives have a fitted effect of over 35% in size
Settings: purified USP1/UAF1, Ub-rhodamine cleavage fluorescence; series mostly up to 114 µM
Records with an inconclusive call do not appear. Calls of active or inactive are those of the source. The call rests on the fitted dose curve; in most records, active means well fitted inhibition curve with a large enough effect; inconclusive means small, poorly fitted or top-dose-only effect; inactive means flat fitted curve, though single readings scatter.
Result category, one only: active, inactive

Short answer needed: outcome of this test for `O=C1NC(O)=NC1(c1ccccc1)c1ccccc1` ?
inactive

# outcome recorded in this test, key = `N[C@@H](CC(=O)O)C(=O)O`
inactive

For CC(C(=O)O)c1ccc2c(c1)[nH]c1ccc(Cl)cc12 (configuration not stated) , what call appears in the results of this test?
inactive

Record request — test call for S=C(S)OC1CC2CC1C1CCCC21 (configuration not stated)
inactive

Hi, do you know how `COc1cc(/C=C/C(=O)CC(=O)/C=C/c2ccc(O)c(OC)c2)ccc1O` came out in this test?
active

---

Assay: Cell Viability - LYMP2-018 (AID 985);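 further: compound exposure lasted 24 hr at 37 °C; nearly all actives have a fitted effect of over 50% in size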
Settings: LYMP2-018 lymphoblastoid cells, viability (qHTS); series mostly up to 92.2 µM
Results filed as inconclusive are left out. The source made the active and inactive calls. Calls come from the whole dose curve; as a rule, active = well fitted cell-killing curve with a large enough effect; inconclusive = small, poorly fitted or top-dose-only effect; inactive = flat fitted curve, though single readings scatter.
One label from this list, please: active, inactive

molecule=c1cnc2c(c1)ccc1cccnc12 class=active
molecule=S=c1[nH]c2ccccc2s1 class=inactive
molecule="CC(C)NCC(O)COc1cccc2ccccc12 (stereo unspecified)" class=inactive

Test call, this molecule: `Nc1nc2ccc([N+](=O)[O-])cc2s1`
inactive

Could you please tell me the result logged for `O=c1cc(-c2ccccc2)oc2ccccc12` in this assay?
inactive

State the result this test recorded for `O=C(O)c1cc(O)c(O)c(O)c1` .
inactive

Answer briefly: the call reported for `Nc1ccc(O)c([N+](=O)[O-])c1` in this assay.
inactive

Per the assay record, what outcome was assigned to `COc1cc(/C=C/C(=O)CC(=O)/C=C/c2ccc(O)c(OC)c2)ccc1O` ?
active

Please indicate how the test categorized `O=C(O)/C=C\C(=O)O` .
inactive

Returns: the outcome recorded for `CN1CCC[C@H]1c1cccnc1` in this assay.
inactive

Recorded call for `CN(C)c1ccc(N=NS(=O)(=O)O)cc1` ?
inactive

---

Target: Hexokinase-4 (Homo sapiens) + Glucokinase regulatory protein (Homo sapiens) (UniProt P35557+Q14397)
Sequence (P35557 whole entry, looked up): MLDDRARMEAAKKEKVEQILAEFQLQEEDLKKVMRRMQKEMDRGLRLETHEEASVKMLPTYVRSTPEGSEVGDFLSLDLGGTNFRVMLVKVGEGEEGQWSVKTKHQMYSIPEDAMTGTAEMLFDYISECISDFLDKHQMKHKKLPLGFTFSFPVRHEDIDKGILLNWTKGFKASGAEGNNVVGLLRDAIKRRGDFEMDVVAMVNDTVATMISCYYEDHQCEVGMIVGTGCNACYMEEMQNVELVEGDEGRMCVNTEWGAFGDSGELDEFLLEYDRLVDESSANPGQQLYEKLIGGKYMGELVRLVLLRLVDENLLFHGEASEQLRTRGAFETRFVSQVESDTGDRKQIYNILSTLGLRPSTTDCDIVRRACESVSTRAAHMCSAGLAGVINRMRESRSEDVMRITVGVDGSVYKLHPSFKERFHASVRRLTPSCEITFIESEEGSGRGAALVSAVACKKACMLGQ
Sequence (Q14397 whole entry, looked up): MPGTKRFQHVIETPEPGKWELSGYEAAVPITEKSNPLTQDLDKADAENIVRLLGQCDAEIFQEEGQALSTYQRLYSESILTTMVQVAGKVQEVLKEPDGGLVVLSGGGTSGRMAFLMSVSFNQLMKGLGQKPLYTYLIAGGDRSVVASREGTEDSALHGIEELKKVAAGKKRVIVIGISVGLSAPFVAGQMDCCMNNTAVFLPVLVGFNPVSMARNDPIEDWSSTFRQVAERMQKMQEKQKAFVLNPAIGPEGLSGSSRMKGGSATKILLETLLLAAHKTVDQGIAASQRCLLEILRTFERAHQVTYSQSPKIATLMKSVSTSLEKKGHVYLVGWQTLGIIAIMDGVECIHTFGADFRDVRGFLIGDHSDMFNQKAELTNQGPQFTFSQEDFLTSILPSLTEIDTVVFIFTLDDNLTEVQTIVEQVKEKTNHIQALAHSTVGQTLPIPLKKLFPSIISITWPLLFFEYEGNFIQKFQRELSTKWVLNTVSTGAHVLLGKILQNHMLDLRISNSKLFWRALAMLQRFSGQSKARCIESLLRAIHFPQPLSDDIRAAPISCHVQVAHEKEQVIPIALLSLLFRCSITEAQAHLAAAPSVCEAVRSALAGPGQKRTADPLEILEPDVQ
Assay: qHTS assay for inhibitors of recombinant human GCK-GKRP interaction: Diaphorase-coupled assay (AID 743205)
Conditions: G6PDH/diaphorase resorufin fluorescence; series mostly up to 57.5 µM
Active and inactive are the calls of the source. Calls follow the shape of the dose curve; as a rule, active = well fitted curve in the direction sought with a large enough effect; inconclusive = small, poorly fitted or top-dose-only effect, or another doubt; inactive = no such curve, though single readings can be large or run the other way.
parameter: outcome

Completed entries (count: 5):
compound="CCCCCCCCCCCCCCCC(=O)NCC(COP(=O)([O-])OCC[N+](C)(C)C)OCC (stereo not drawn)" parameter=outcome valuemeasured=inactive
compound=C[N+]1(C)CCC(OC(=O)C(c2ccccc2)c2ccccc2)CC1 parameter=outcome valuemeasured=inactive
compound=Cc1cc(NC2CCCCC2)nc(-n2nc(C)cc2C)n1 parameter=outcome valuemeasured=inactive
compound=Nc1nc(Cl)nc2c1ncn2[C@@H]1O[C@H](CO)[C@@H](O)[C@H]1O parameter=outcome valuemeasured=inactive
compound=C[N+](C)(C)CCOP(=O)(O)OP(=O)([O-])OC[C@H]1O[C@@H](n2ccc(N)nc2=O)[C@H](O)[C@@H]1O parameter=outcome valuemeasured=inactive

Which outcome is listed for `O=C(O)CCCC[C@@H]1CCSS1` ?
inactive

I'd like to know its outcome. The compound in question is CC1CN(S(=O)(=O)c2cccc3cnccc23)CCN1 (stereo not drawn)
inactive

Could you tell me which outcome is on file for `C[C@@H](CN1CCC(Cc2ccccc2)CC1)[C@@H](O)c1ccc(O)cc1` ?
inactive

What measured outcome goes with `Oc1cc(O)cc(/C=C/c2ccc(O)c(O)c2)c1` ?
inactive

Fill blank: measured outcome of the compound OCC1O[C@H]([S-])[C@H](O)[C@@H](O)[C@@H]1O.[Au+] (stereo partly drawn) is ____.
inactive

Need outcome, item `COc1ccccc1CNCCCCCCNCCCCCCCCNCCCCCCNCc1ccccc1OC`
inactive

Give its outcome value. Item: `COC(=O)c1c(C)[nH]c(C)c1C(=O)c1ccccc1Cc1ccccc1`
inactive

Entry source: PubChem BioAssay (NCATS)
